Test system: P. aeruginosa strain WC-453
Assay name: Time-kill assay in HEPES or CAA with 25% human serum (Tables 7, 8)
Type: cell-based, Pseudomonas aeruginosa
Condition notes: 25 mM HEPES pH 7.4; lysin 10 μg/ml; 3 hr; WC-453
Readout type: HEPES (Log10 CFU/mL), 3 hr
Number in Log10 CFU/mL, nothing else.

IN: I'd like to know its HEPES (Log10 CFU/mL), 3 hr. The molecule in question is GN122: lysin obtained from Pseudomonas putida strain PA14H7 (SEQ ID NO: 218) (protein, listed as Pseudomonas putida) MSIFSFVKEAGEKLIDLLTPGNANASEQLKEHVSKVGLGNPNIQTTVEGSKVTVTGEVASQEEKEKILLALGNIAGVESVDDQITVTGPLVAAARFVVVKKGDTLSAISLAVYGNANQYNKIFEANKPLLSHPDKIYPGQTLRIPE
OUT: 5.4
